Tested on: CD2F1 mice, L1210 leukemia ip, survival T/C
EXPERIMENT_NOTES: NCI In Vivo Anticancer Drug Screen. Data for tumor model L1210 Leukemia (intraperitoneal) in CD2F1 (CDF1) mice
CONDITIONS: endpoint: mean survival time; dose: 100.0 mg/kg/injection; schedule: Q04DX002 (ip); vehicle: saline with Tween-80; higher = longer survival
Inconclusive results and toxic doses are left out.
READOUT_KIND: T/C

| COMPOUND | READOUT_KIND | MEASURED_VALUE |
| --- | --- | --- |
| CC1=C(CCC(=O)O)C(=O)C(CCC(=O)O)C(C)(C)C1 (stereo not given) | T/C | 96 % of control |
| O=C(OCC#CCOC(=O)c1c(Cl)ccc(Cl)c1Cl)c1c(Cl)ccc(Cl)c1Cl | T/C | 89 % of control |
| O=C(CCCN1CCC(O)(c2ccc(Cl)cc2)CC1)c1ccc(N2CCC(O)CC2)cc1 | T/C | 104 % of control |
| O=S(=O)(F)c1ccc(S)c(Cl)c1Cl | T/C | 98 % of control |
| O=[N+]([O-])c1ccc(NN=C2c3ccccc3Cc3ccccc32)c([N+](=O)[O-])c1 | T/C | 87 % of control |

###

Measured T/C of individual entries
Test system: CD2F1 mice, L1210 leukemia ip, survival T/C
EXPERIMENT_NOTES: NCI In Vivo Anticancer Drug Screen. Data for tumor model L1210 Leukemia (intraperitoneal) in CD2F1 (CDF1) mice
CONDITIONS: endpoint: mean survival time; dose: 100.0 mg/kg/injection; schedule: Q04DX003 (ip); vehicle: saline with Tween-80; higher = longer survival
Toxic doses and inconclusive results are not listed.
READOUT_KIND: T/C

| COMPOUND | TEST_SYSTEM | READOUT_KIND | MEASURED_VALUE |
| --- | --- | --- | --- |
| Cc1cc(C)c(C)c(C(O)(C(=O)O)c2ccccc2)c1 (stereo unspecified) | CD2F1 mice, L1210 leukemia ip, survival T/C | T/C | 97 % of control |
| O=C(O)CSCC(=O)c1ccccc1 | CD2F1 mice, L1210 leukemia ip, survival T/C | T/C | 94 % of control |
| O=C(O)c1ccccc1S(=O)(=O)c1ccccc1 | CD2F1 mice, L1210 leukemia ip, survival T/C | T/C | 93 % of control |
| C=CC(=O)NC(C)(C)CC(C)(C)C | CD2F1 mice, L1210 leukemia ip, survival T/C | T/C | 92 % of control |
| CCCCCC(CN(C)C)C(/C=C/c1ccccc1)OC(=O)c1ccc([N+](=O)[O-])cc1 (stereo unspecified) | CD2F1 mice, L1210 leukemia ip, survival T/C | T/C | 90 % of control |
| CC(=O)OCC(COC(C)=O)(COC(C)=O)COC(C)=O | CD2F1 mice, L1210 leukemia ip, survival T/C | T/C | 100 % of control |

###

Tested on: CD2F1 mice, L1210 leukemia ip, survival T/C
EXPERIMENT_NOTES: NCI In Vivo Anticancer Drug Screen. Data for tumor model L1210 Leukemia (intraperitoneal) in CD2F1 (CDF1) mice
CONDITIONS: endpoint: mean survival time; dose: 200.0 mg/kg/injection; schedule: Q01DX001 (ip); vehicle: saline with Tween-80; higher = longer survival
Inconclusive results and toxic doses are left out. Non-standard residues stand in square brackets, D forms with d. Residues, ends and D or L forms follow the SMILES beside them. ξ: configuration not given here. *: point of attachment. Bz = O=C(c1ccccc1)*; Bn = c1ccc(C*)cc1; ξC = NC(CS)C(=O)O
READOUT_KIND: T/C

| MOLECULE | MEASURED_VALUE |
| --- | --- |
| CCOC(=O)COc1c(C(C)(C)C)cc([N+](=O)[O-])c(C)c1[N+](=O)[O-] | 111 % of control |
| Cc1cc2oc(=O)c(Cl)c(NCCO)c2c(C)c1Cl | 98 % of control |
| COC(=O)/N=C(/NC(=O)OC)SC | 103 % of control |
| CCOC(=O)C(C)(C)Oc1ccc(Cl)cc1 | 91 % of control |
| COC(=O)C(CSCc1ccccc1)NC(=O)CNC(=O)c1ccccc1 (stereo unspecified) (Bz-Gly-[ξC](Bn)-OMe) | 93 % of control |
| COCC(=O)C(C(C)=O)C(c1ccc(OC)cc1)C(C(C)=O)C(=O)COC (stereo unspecified) | 98 % of control |
| O=c1cc(NCCCOc2ccccc2)[nH]c(=O)[nH]1 | 98 % of control |
| Nc1nc(N)c(-c2ccc(Cl)cc2)c(/C=C/C=C/c2ccc([N+](=O)[O-])cc2)n1 | 101 % of control |
| CCCCCCCCCCCC(=O)NC(=S)Nc1cc(Cl)ccc1Cl | 92 % of control |
| N#C/C(=C/c1ccc(Cl)cc1)C(N)=O | 111 % of control |
| C(/C=C\c1ccccc1)=C(/C=C/c1ccccc1)/C=C/c1ccccc1 | 89 % of control |
